Tgt: Substance-K receptor (Cavia porcellus) (UniProt Q64077)
Sequence (Q64077 whole entry): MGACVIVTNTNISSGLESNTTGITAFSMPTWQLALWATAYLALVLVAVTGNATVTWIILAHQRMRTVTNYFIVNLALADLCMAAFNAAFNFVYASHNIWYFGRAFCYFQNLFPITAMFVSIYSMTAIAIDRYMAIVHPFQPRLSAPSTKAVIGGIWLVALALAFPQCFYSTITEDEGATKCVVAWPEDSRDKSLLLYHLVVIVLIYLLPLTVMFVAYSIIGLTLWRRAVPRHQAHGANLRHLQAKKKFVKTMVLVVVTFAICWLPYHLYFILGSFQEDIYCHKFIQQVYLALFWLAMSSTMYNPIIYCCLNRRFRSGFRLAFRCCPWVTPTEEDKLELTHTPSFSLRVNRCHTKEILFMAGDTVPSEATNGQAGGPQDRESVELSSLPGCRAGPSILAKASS
Assay overview: Antagonist activity at NK2 receptor in Dunkin-Hartley guinea pig colon smooth muscle assessed as inhibition of [beta-Ala8]NKA(4-10)-induced tissue contraction in presence of NK1 receptor antagonist SR-140333
Type: functional, tissue-based
Recorded endpoint: pKb

pKb recorded for this compound, Cc1ccc2cc(C(=O)NC3(C(=O)N[C@@H](CCCN4CCN(Cc5ccc(F)cc5)CC4)Cc4ccccc4)CCCC3)sc2c1 , is 8.2

pKb recorded for this compound, CCOCCCN1CCN(CCC[C@@H](Cc2ccccc2)NC(=O)C2(NC(=O)c3cc4ccc(C)cc4s3)CCCC2)CC1 , is 7.2

pKb recorded for this compound, Cc1ccc2cc(C(=O)NC3(C(=O)N[C@H](CCCN4CCN(CC5CCOCC5)CC4)Cc4ccccc4)CCCC3)sc2c1 , is 7.7

pKb recorded for this compound, Cc1ccc2cc(C(=O)NC3(C(=O)N[C@@H](CCCC4CCN(CC5CCOCC5)CC4)Cc4ccccc4)CCCC3)sc2c1 , is 7.9

pKb recorded for this compound, Cc1ccc2cc(C(=O)NC3(C(=O)N[C@@H](CCCN4CCN(Cc5c[nH]cn5)CC4)Cc4ccccc4)CCCC3)sc2c1 , is 8

pKb recorded for this compound, Cc1ccc2cc(C(=O)NC3(C(=O)N[C@@H](CCCN4CCN(S(=O)(=O)C(C)C)CC4)Cc4ccccc4)CCCC3)sc2c1 , is 7.9

pKb recorded for this compound, O=C(NC1(C(=O)N[C@@H](CCCN2CCN(CC3CCOCC3)CC2)Cc2ccccc2)CCCC1)c1ccc(-c2ccccc2)cc1 , is 8.7

---

Tgt: Substance-K receptor (Cavia porcellus)
Assay overview: Antagonist activity at NK2 receptor in Dunkin-Hartley guinea pig colon smooth muscle assessed as inhibition of [beta-Ala8]NKA(4-10)-induced tissue contraction in presence of NK1 receptor antagonist SR-140333
Format: functional, tissue-based
Recorded endpoint: pKb

Query Cc1ccc2cc(C(=O)NC3(C(=O)N[C@@H](CCCN4CCN(S(=O)(=O)N5CCOCC5)CC4)Cc4ccccc4)CCCC3)sc2c1 on Substance-K receptor (Cavia porcellus); pKb returned: 8.4

Query COc1ccc2oc(C(=O)NC3(C(=O)N[C@@H](CCCN4CCN(CC5CCOCC5)CC4)Cc4ccccc4)CCCC3)cc2c1 on Substance-K receptor (Cavia porcellus); pKb returned: 7.4

Query Cc1ccc2cc(C(=O)NC3(C(=O)N[C@@H](CCCN4CCN(Cc5ccccn5)CC4)Cc4ccccc4)CCCC3)sc2c1 on Substance-K receptor (Cavia porcellus); pKb returned: 7.9

Query Cc1ccc2cc(C(=O)NC3(C(=O)N[C@@H](CCCN4CCN(C(=O)c5cccn5C)CC4)Cc4ccccc4)CCCC3)sc2c1 on Substance-K receptor (Cavia porcellus); pKb returned: 8.2

Query Cc1ccc2cc(C(=O)NC3(C(=O)N[C@H](Cc4ccccc4)CN4CCN(CC5CCOCC5)CC4)CCCC3)sc2c1 on Substance-K receptor (Cavia porcellus); pKb returned: 7.6

Query Cc1ccc2cc(C(=O)NC3(C(=O)N[C@@H](CCCN4CCN(Cc5cccnc5)CC4)Cc4ccccc4)CCCC3)sc2c1 on Substance-K receptor (Cavia porcellus); pKb returned: 8.2

Query CC/N=C(\N1CCOCC1)N1CCN(CCC[C@@H](Cc2ccccc2)NC(=O)C2(NC(=O)c3cc4ccc(C)cc4s3)CCCC2)CC1 on Substance-K receptor (Cavia porcellus); pKb returned: 8

---

Target sequence: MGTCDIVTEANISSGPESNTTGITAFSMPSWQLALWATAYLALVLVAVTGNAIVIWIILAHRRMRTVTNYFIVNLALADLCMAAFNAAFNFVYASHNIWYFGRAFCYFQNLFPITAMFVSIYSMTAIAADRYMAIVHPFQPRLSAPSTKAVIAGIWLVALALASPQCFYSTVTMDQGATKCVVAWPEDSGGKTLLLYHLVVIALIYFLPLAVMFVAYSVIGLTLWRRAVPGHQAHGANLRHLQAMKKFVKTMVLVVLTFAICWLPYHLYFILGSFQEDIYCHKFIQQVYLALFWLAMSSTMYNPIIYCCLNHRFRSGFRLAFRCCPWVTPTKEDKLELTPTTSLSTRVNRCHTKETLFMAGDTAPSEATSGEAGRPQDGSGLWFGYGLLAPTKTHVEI
Recorded endpoint: Ki (pM)

Ki recorded for this molecule, Cc1ccc2cc(C(=O)NC3(C(=O)N[C@@H](CCCN4CCN(Cc5ccccn5)CC4)Cc4ccccc4)CCCC3)sc2c1 , is 158

Ki recorded for this molecule, Cc1ccc2cc(C(=O)NC3(C(=O)N[C@@H](CCCN4CCN(Cc5ccsc5)CC4)Cc4ccccc4)CCCC3)sc2c1 , is 158

Ki recorded for this molecule, Cc1ccc2cc(C(=O)NC3(C(=O)N[C@@H](CCCN4CCN(Cc5cccs5)CC4)Cc4ccccc4)CCCC3)sc2c1 , is 158

Ki recorded for this molecule, Cc1ccc2cc(C(=O)NC3(C(=O)N[C@@H](CCCN4CCN(S(=O)(=O)N5CCOCC5)CC4)Cc4ccccc4)CCCC3)sc2c1 , is 501

Ki recorded for this molecule, Cc1ccc2cc(C(=O)NC3(C(=O)N[C@@H](CCN4CCN(CC5CCOCC5)CC4)Cc4ccccc4)CCCC3)sc2c1 , is 15800

[P] Cc1ccc2oc(C(=O)NC3(C(=O)N[C@@H](CCCN4CCN(CC5CCOCC5)CC4)Cc4ccccc4)CCCC3)cc2c1
[Q] Cc1ccc2cc(C(=O)NC3(C(=O)N[C@@H](CCCN4CCN(c5ncccn5)CC4)Cc4ccccc4)CCCC3)sc2c1
(Q) Lower value of Ki belongs to which: P or Q ? Indicate your choice by writing its label.
(A) P
(P: 398 pM, Q: 794 pM)

---

Tgt: Substance-K receptor (Cavia porcellus) (UniProt Q64077)
Assay overview: Antagonist activity at NK2 receptor in Dunkin-Hartley guinea pig colon smooth muscle assessed as inhibition of [beta-Ala8]NKA(4-10)-induced tissue contraction in presence of NK1 receptor antagonist SR-140333
Format: functional, tissue-based
Recorded endpoint: pKb

Query O=C(NC1(C(=O)N[C@@H](CCCN2CCN(CC3CCOCC3)CC2)Cc2ccccc2)CCCC1)c1ccc2ccccc2c1 on Substance-K receptor (Cavia porcellus) (UniProt Q64077); pKb returned: 8.2

Query Cc1ccc2cc(C(=O)NC3(C(=O)N[C@@H](CCCN4CCN(CC5CCOCC5)CC4)Cc4ccccc4)CCCC3)sc2c1 on Substance-K receptor (Cavia porcellus) (UniProt Q64077); pKb returned: 8.6

Query CCS(=O)(=O)N1CCN(CCC[C@@H](Cc2ccccc2)NC(=O)C2(NC(=O)c3cc4ccc(C)cc4s3)CCCC2)CC1 on Substance-K receptor (Cavia porcellus) (UniProt Q64077); pKb returned: 8

Query Cc1ccc2cc(C(=O)NC3(C(=O)N[C@@H](CCCN4CCN(Cc5ccoc5)CC4)Cc4ccccc4)CCCC3)sc2c1 on Substance-K receptor (Cavia porcellus) (UniProt Q64077); pKb returned: 8.2

---

Tgt: UniProt:Q64077
Assay overview: Antagonist activity at NK2 receptor in Dunkin-Hartley guinea pig colon smooth muscle assessed as inhibition of [beta-Ala8]NKA(4-10)-induced tissue contraction in presence of NK1 receptor antagonist SR-140333
Format: functional, tissue-based
Recorded endpoint: pKb

pKb recorded for this compound, O=C(NC1(C(=O)N[C@@H](CCCN2CCN(CC3CCOCC3)CC2)Cc2ccccc2)CCCC1)c1cc2ccccc2o1 , is 8.2

pKb recorded for this compound, Cc1ccc2cc(C(=O)NC3(C(=O)N[C@@H](CCC(=O)N4CCN(C5CCOCC5)CC4)Cc4ccccc4)CCCC3)sc2c1 , is 8.2

pKb recorded for this compound, Cc1ccc2cc(C(=O)NC3(C(=O)N[C@@H](CCCN4CCC(N(C)C5CCOCC5)CC4)Cc4ccccc4)CCCC3)sc2c1 , is 7.8

pKb recorded for this compound, Cc1ccc2cc(C(=O)NC3(C(=O)N[C@@H](CCCN4CCN(C(=O)N5CCOCC5)CC4)Cc4ccccc4)CCCC3)sc2c1 , is 8.3

pKb recorded for this compound, Cc1ccc2cc(C(=O)NC3(C(=O)N[C@@H](/C=C/CN4CCN(CC5CCOCC5)CC4)Cc4ccccc4)CCCC3)sc2c1 , is 8.2

pKb recorded for this compound, Cc1ccc2cc(C(=O)NC3(C(=O)N[C@@H](CCC(=O)N4CCC(N(C)C5CCOCC5)CC4)Cc4ccccc4)CCCC3)sc2c1 , is 7.8

pKb recorded for this compound, Cc1ccc2cc(C(=O)NC3(C(=O)N[C@@H](CCCN4CCN(S(N)(=O)=O)CC4)Cc4ccccc4)CCCC3)sc2c1 , is 7.8

pKb recorded for this compound, Cc1ccc2cc(C(=O)NC3(C(=O)N[C@@H](CCCN4CCN(Cc5ccsc5)CC4)Cc4ccccc4)CCCC3)sc2c1 , is 8.2

pKb recorded for this compound, Cc1ccc2cc(C(=O)NC3(C(=O)N[C@@H](CCCN4CCN(Cc5ccncc5)CC4)Cc4ccccc4)CCCC3)sc2c1 , is 8.4

pKb recorded for this compound, O=C(NC1(C(=O)N[C@@H](CCCN2CCN(CC3CCOCC3)CC2)Cc2ccccc2)CCCC1)c1cc2cc(Cl)ccc2o1 , is 7.6

pKb recorded for this compound, O=C(NC1(C(=O)N[C@@H](CCCN2CCN(CC3CCOCC3)CC2)Cc2ccccc2)CCCC1)c1cc2ccccc2s1 , is 8.2

pKb recorded for this compound, Cc1ccc2cc(C(=O)NC3(C(=O)N[C@@H](CCCN4CCN(C(=O)C5CCOCC5)CC4)Cc4ccccc4)CCCC3)sc2c1 , is 8.1

pKb recorded for this compound, Cc1ccc2cc(C(=O)NC3(C(=O)N[C@@H](COCC4CCN(CC5CCOCC5)CC4)Cc4ccccc4)CCCC3)sc2c1 , is 7.6

pKb recorded for this compound, Cc1ccc2oc(C(=O)NC3(C(=O)N[C@@H](CCCN4CCN(CC5CCOCC5)CC4)Cc4ccccc4)CCCC3)cc2c1 , is 8.7

pKb recorded for this compound, Cc1ccc2cc(C(=O)NC3(C(=O)N[C@@H](CCC(=O)N4CCC(N5CCOCC5)CC4)Cc4ccccc4)CCCC3)sc2c1 , is 7.8
